assay: Oral bioavailability in cynomolgus monkey at 5 mg/kg measured after 24 hrs by LC/MS/MS analysis; format: ADME, organism-based, Macaca fascicularis; settings: in vivo
property_measured: bioavailability (%)
Report as a plain number; the unit % is understood.

>  <smiles_representation>
C[C@@H](OC(=O)Nc1c(-c2ccc(NC(=O)c3cnc(C(F)(F)F)nc3)cn2)nnn1C)c1cc(F)cnc1F

>  <unit_name>
%

>  <observed_value>
43

$$$$

Now let's try a different one.
Query :: Supply recorded bioavailability for C[C@@H](OC(=O)Nc1c(-c2ccc(NS(C)(=O)=O)cn2)nnn1C)c1cc(F)cnc1F here.
Result :: 45

###

test: Plasma protein binding in female CD-1 mouse assessed as unbound fraction at 2 uM incubated for 24 hrs by LC-MS analysis; format: ADME, cell-free
property_measured: fraction unbound at 24 h, 2 µM
Simply state the number, no unit and no words.

Query :: Supply recorded fraction unbound at 24 h, 2 µM for C[C@@H](OC(=O)Nc1c(-c2ccc(NC(=O)c3cnc(C(F)(F)F)nc3)cn2)nnn1C)c1cc(F)cnc1F here.
Result :: 0.066

###

experiment: Volume of distribution in cynomolgus monkey at 1 mg/kg, iv measured after 24 hrs by LC/MS/MS analysis; format: ADME, organism-based, Macaca fascicularis; settings: in vivo
property_measured: Vd
# output: number + unit

>  <smiles_representation>
C[C@@H](OC(=O)Nc1c(-c2ccc(NS(C)(=O)=O)cn2)nnn1C)c1cc(F)cnc1F

>  <Vd>
0.4 L/kg

$$$$

Query :: Supply recorded Vd for C[C@@H](OC(=O)Nc1c(-c2ccc(NC(=O)c3cnc(C(F)(F)F)nc3)cn2)nnn1C)c1cc(F)cnc1F here.
Result :: 0.8 L/kg

###

target: Solute carrier organic anion transporter family member 1B3 (Homo sapiens, UniProt Q9NPD5); experiment: Inhibition of OATPB1P3 in human hepatocyte by LC-MS analysis
Sequence (Q9NPD5 whole entry): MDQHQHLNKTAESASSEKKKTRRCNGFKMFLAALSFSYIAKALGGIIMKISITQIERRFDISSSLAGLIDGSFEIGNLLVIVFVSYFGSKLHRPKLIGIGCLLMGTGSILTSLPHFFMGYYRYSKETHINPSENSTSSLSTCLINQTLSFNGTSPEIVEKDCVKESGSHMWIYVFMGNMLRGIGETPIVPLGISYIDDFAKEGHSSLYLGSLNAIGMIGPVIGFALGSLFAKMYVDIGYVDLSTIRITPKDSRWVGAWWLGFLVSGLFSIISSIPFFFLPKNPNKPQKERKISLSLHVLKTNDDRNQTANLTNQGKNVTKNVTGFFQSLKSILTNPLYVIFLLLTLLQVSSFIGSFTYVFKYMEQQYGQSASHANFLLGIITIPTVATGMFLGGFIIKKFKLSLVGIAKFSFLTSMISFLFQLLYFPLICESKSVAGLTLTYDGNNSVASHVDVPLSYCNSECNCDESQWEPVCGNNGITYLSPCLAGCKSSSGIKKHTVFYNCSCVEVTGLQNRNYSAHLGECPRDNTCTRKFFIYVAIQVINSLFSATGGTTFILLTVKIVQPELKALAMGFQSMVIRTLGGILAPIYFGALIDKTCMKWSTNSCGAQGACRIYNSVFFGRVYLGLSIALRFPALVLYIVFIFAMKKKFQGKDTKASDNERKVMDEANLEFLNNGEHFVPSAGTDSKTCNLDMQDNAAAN
property_measured: IC50
# output: number + unit

Query :: # return IC50 of C[C@@H](OC(=O)Nc1c(-c2ccc(NC(=O)c3cnc(C(F)(F)F)nc3)cn2)nnn1C)c1cc(F)cnc1F (system: Solute carrier organic anion transporter family member 1B3 (Homo sapiens, UniProt Q9NPD5))
Result :: 15 µM

###

assay: Drug excretion in bile-duct cannulated rat urine at 1 mg/kg, iv; type: ADME, organism-based; details: read-out: Drug excretion
property_measured: dose excreted

Query :: Supply recorded dose excreted for Cc1nc(-c2nnn(C)c2NC(=O)O[C@H](C)c2cccnc2Cl)ccc1NS(C)(=O)=O here.
Result :: 50%

###

system: P-gp (human); assay: Apparent permeability from apical to basolateral side of human P-gp transfected MDCK cells measured after 20 min by LC/MS/MS analysis; type: ADME, cell-based, Canis lupus familiaris; conditions: dog, MDCK-MDR1
property_measured: Papp A→B at 20 min (×10⁻⁶ cm/s)
Report as a plain number; the unit ×10⁻⁶ cm/s is understood.

Query :: Supply recorded Papp A→B at 20 min for C[C@@H](OC(=O)Nc1c(-c2ccc(NC(=O)c3cnc(C(F)(F)F)nc3)cn2)nnn1C)c1cc(F)cnc1F here.
Result :: 0.3

###

test: Unbound drug concentration in CD-1 mouse brain at 2 uM incubated for 5 hrs by LC-MS analysis; format: ADME, tissue-based
property_measured: fraction unbound at 5 h, 2 µM

Query :: Supply recorded fraction unbound at 5 h, 2 µM for C[C@@H](OC(=O)Nc1c(-c2ccc(NC(=O)c3cnc(C(F)(F)F)nc3)cn2)nnn1C)c1cc(F)cnc1F here.
Result :: 0.133

###

Entries and their measured pEC50 follow.
target: Lysophosphatidic acid receptor 1 (Homo sapiens, UniProt Q92633); assay: Antagonist activity at LPA1 receptor in serum starved human TWNT-4 cells assessed as nuclear translocation pre-incubated for 1 hr followed by LPA stimulation and measured after 30 min by MRTF-A assay; type: cell-based
Sequence (Q92633 whole entry): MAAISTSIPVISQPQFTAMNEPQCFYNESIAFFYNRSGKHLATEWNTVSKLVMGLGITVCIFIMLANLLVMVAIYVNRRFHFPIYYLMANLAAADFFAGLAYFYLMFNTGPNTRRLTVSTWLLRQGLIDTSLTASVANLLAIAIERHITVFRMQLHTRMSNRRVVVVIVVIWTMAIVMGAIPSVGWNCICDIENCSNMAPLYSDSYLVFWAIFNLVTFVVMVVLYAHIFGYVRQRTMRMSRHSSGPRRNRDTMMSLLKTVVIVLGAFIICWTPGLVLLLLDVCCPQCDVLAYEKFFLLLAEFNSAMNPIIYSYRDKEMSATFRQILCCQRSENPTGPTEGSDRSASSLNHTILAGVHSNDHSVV
Remember the convention: pEC50 equals -log10 of concentration in molar.

Completed entries (count: 6):
>  <smiles_representation>
CC(=O)N(C)c1ccc(-c2nnn(C)c2NC(=O)O[C@H](C)c2ccccc2Cl)cc1

>  <pEC50>
5.12

$$$$
>  <smiles_representation>
C[C@@H](OC(=O)Nc1c(-c2ccc(N(C)S(C)(=O)=O)cc2)nnn1C)c1ccccc1Cl

>  <pEC50>
6.05

$$$$
>  <smiles_representation>
Cc1nc(-c2nnn(C)c2NC(=O)O[C@H](CF)c2ccccc2)ccc1NS(C)(=O)=O

>  <pEC50>
7.51

$$$$
>  <smiles_representation>
C[C@@H](OC(=O)Nc1c(-c2ccc(NC(=O)c3ccc(C(F)(F)F)nc3)cn2)nnn1C)c1cc(F)cnc1F

>  <pEC50>
7.60

$$$$
>  <smiles_representation>
Cc1ccc(C(=O)Nc2ccc(-c3nnn(C)c3NC(=O)O[C@H](C)c3cc(F)cnc3F)nc2)cn1

>  <pEC50>
6.96

$$$$
>  <smiles_representation>
C[C@@H](OC(=O)Nc1c(-c2ccc(O)cc2)nnn1C)c1ccccc1Cl

>  <pEC50>
6.63

$$$$

Query :: Supply recorded pEC50 for C[C@@H](OC(=O)Nc1c(-c2ccc(NS(=O)(=O)CC#N)cc2)nnn1C)c1ccccc1Cl here.
Result :: 7.49

Query :: Supply recorded pEC50 for C[C@@H](OC(=O)Nc1c(-c2ccc(NC(=O)c3cnc(C(F)(F)F)nc3)cn2)nnn1C)c1cc(F)cnc1F here.
Result :: 7.92

Query :: Supply recorded pEC50 for C[C@@H](OC(=O)Nc1c(-c2ccc(N)cn2)nnn1C)c1cc(F)cnc1F.Cl here.
Result :: 5.10

Query :: Supply recorded pEC50 for C[C@@H](OC(=O)Nc1c(-c2ccc(NS(C)(=O)=O)cn2)nnn1C)c1cccnc1F here.
Result :: 6.73

Query :: Supply recorded pEC50 for C[C@@H](OC(=O)Nc1c(-c2ccc(NS(C)(=O)=O)cn2)nnn1C)c1cccc(F)c1 here.
Result :: 6.28

Query :: Supply recorded pEC50 for C[C@@H](OC(=O)Nc1c(-c2ccc(NC(=O)C34CC(C#N)(C3)C4)cn2)nnn1C)c1cc(F)cnc1F here.
Result :: 7.29

Query :: Supply recorded pEC50 for C[C@@H](OC(=O)Nc1c(-c2ccc(NC(=O)C3CC(F)(F)C3)cn2)nnn1C)c1cc(F)cnc1F here.
Result :: 7.68

Query :: Supply recorded pEC50 for C[C@@H](OC(=O)Nc1c(-c2ccc(NC(=O)[C@@H]3CC3(F)F)cn2)nnn1C)c1cc(F)cnc1F here.
Result :: 6.24

Query :: Supply recorded pEC50 for Cc1nc(-c2nnn(C)c2NC(=O)O[C@H](C)c2cc(F)cnc2Cl)ccc1NS(C)(=O)=O here.
Result :: 7.08

Query :: Supply recorded pEC50 for Cc1nc(-c2nnn(C)c2NC(=O)O[C@H](C)c2ccccc2Cl)ccc1NS(C)(=O)=O here.
Result :: 7.96

Query :: Supply recorded pEC50 for CC(=O)Nc1ccc(-c2nnn(C)c2NC(=O)O[C@H](C)c2cc(F)cnc2F)nc1 here.
Result :: 5.87

Query :: Supply recorded pEC50 for C[C@@H](OC(=O)Nc1c(-c2ccc(NS(C)(=O)=O)cn2)nnn1C)c1cc(F)ccc1F here.
Result :: 6.91

###

experiment: Half-life in Beagle dog at 5 mg/kg, po measured after 24 hrs by LC/MS/MS analysis; format: ADME, organism-based, Canis lupus familiaris; conditions: in vivo
property_measured: half-life
# output: number + unit

>  <smiles_representation>
C[C@@H](OC(=O)Nc1c(-c2ccc(NC(=O)c3cnc(C(F)(F)F)nc3)cn2)nnn1C)c1cc(F)cnc1F

>  <half-life>
2.9 h

$$$$

Now let's try a different one.
Query :: Supply recorded half-life for C[C@@H](OC(=O)Nc1c(-c2ccc(NS(C)(=O)=O)cn2)nnn1C)c1cc(F)cnc1F here.
Result :: 3.6 h

###

test: Oral bioavailability in male Sprague-Dawley rat at 5 mg/kg measured after 24 hrs by LC/MS/MS analysis; type: ADME, organism-based; conditions: in vivo
Entries and their measured bioavailability follow.
Report as a plain number; the unit % is understood.

>  <smiles_representation>
C[C@@H](OC(=O)Nc1c(-c2ccc(NS(C)(=O)=O)cn2)nnn1C)c1cc(F)cnc1F

>  <property_measured>
bioavailability

>  <observed_value>
55

$$$$

Now let's try a different one.
Query :: Supply recorded bioavailability for C[C@@H](OC(=O)Nc1c(-c2ccc(NC(=O)c3cnc(C(F)(F)F)nc3)cn2)nnn1C)c1cc(F)cnc1F here.
Result :: 40

###

Entries and their measured AUC(0-t) at 24 h follow.
assay: AUC (0 to 24 hrs) in Beagle dog at 5 mg/kg, po measured after 24 hrs by LC/MS/MS analysis; assay type: ADME, organism-based, Canis lupus familiaris; settings: in vivo
Report as a plain number; the unit µM·h is understood.

>  <smiles_representation>
C[C@@H](OC(=O)Nc1c(-c2ccc(NS(C)(=O)=O)cn2)nnn1C)c1cc(F)cnc1F

>  <unit_name>
µM·h

>  <observed_value>
25

$$$$

Now let's try a different one.
Query :: Supply recorded AUC(0-t) at 24 h for C[C@@H](OC(=O)Nc1c(-c2ccc(NC(=O)c3cnc(C(F)(F)F)nc3)cn2)nnn1C)c1cc(F)cnc1F here.
Result :: 54
